system: A431 cells of skin cancer; format: in vivo, BALB/c nude mice; settings: mouse, in vivo, 15 mg/kg
No end group written: not given here.
Examples of substances with documented in vivo tumor growth inhibition rate follow.
observed-property: in vivo tumor growth inhibition rate (%)

1) MGRAGVPGFSPRRSSVEAKMQSTSCSVRKSSTVTAWPAVVLLLSWGQRRGG-OH [HMMW-IX] : 64.33
2) MERAGVPGFSPRRSSVEAKMQSTSCSVRKSSTVTAWPAVVLLLHTSKDDEE-OH [HMMW-II] : 71.22
3) MERAGVPGFSPRRSSVEAKMQSTSCSVRKSSTVTAWPAVVLLLSWGQRDEE-OH [HMMW-VI] : 68.25

----------
tested on: MGC803 cells of stomach cancer; assay: Matrigel transwell invasion test; format: cell-based, human; settings: dose 16 μM, 24 h
No end group written: not given here.
Examples of substances with documented invasion inhibition rate follow.
observed-property: invasion inhibition rate (%)

1. MGSTYNPGFSPRRSSVEAKMQSTSCSVRKSSTVTAWPAVVLLLSWGQRRGG-OH [HMMW-V] : 68.38
2. MERAGVPGFSPRRSSVEAKMQSTSCSVRKSSTVTAWPAVVLLLSWGQRRGG-OH [HMMW-I] : 68.62
3. MGSTGVPGFSPRRSSVEAKMQSTSCSVRKSSTVTAWPAVVLLLSWGQRRGG-OH [HMMW-VII] : 69.57
4. MERAGVPGFSPRRSSVEAKMQSTSCSVRKSSTVTAWPAVVLLLSWGQRDEE-OH [HMMW-VI] : 63.35

----------
tested on: A549 cells of lung cancer; assay type: in vivo, BALB/c nude mice; settings: mouse, in vivo, 15 mg/kg
No end group written: not given here.
Examples of substances with documented in vivo tumor growth inhibition rate follow.
observed-property: in vivo tumor growth inhibition rate

1) MGRAGVPGFSPRRSSVEAKMQSTSCSVRKSSTVTAWPAVVLLLSWGQRRGG-OH [HMMW-IX] : 69.09%
2) MERAGVPGFSPRRSSVEAKMQSTSCSVRKSSTVTAWPAVVLLLHTSKDDEE-OH [HMMW-II] : 71.32%
3) MGSTYNPGFSPRRSSVEAKMQSTSCSVRKSSTVTAWPAVVLLLSWGQRRGG-OH [HMMW-V] : 71.12%

----------
system: TE13 cells of esophageal squamous cell carcinoma; assay: transwell migration test; type: cell-based, human; settings: dose 1 μM, 24 h
No end group written: not given here.
observed-property: migration inhibition rate

1. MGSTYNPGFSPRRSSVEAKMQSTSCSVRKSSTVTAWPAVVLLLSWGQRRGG-OH [HMMW-V] : 23.74%
2. MGSTGVPGFSPRRSSVEAKMQSTSCSVRKSSTVTAWPAVVLLLSWGQRRGG-OH [HMMW-VII] : 23.64%
3. MERAGVPGFSPRRSSVEAKMQSTSCSVRKSSTVTAWPAVVLLLSWGQRRGG-OH [HMMW-I] : 23.76%
4. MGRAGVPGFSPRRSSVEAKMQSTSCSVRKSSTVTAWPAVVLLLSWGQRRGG-OH [HMMW-IX] : 21.76%
5. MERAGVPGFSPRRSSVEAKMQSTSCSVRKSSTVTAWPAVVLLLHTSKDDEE-OH [HMMW-II] : 22.74%
6. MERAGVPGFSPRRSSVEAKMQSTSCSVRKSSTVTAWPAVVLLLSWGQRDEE-OH [HMMW-VI] : 21.76%
7. MERAGVPGFSPRRSSVEAKMQSTSCSVRKSSTVTAWPAVVLLLSWGKDDEE-OH [HMMW-IV] : 22.76%

Cited source: patent US12565522B2
